- target_of_assay: P2X1 receptor (Homo sapiens, UniProt P51575)
- Construct: gene P2RX1; human P2X1 receptor stably expressed in HEK293 cells
- Sequence (P51575 whole entry): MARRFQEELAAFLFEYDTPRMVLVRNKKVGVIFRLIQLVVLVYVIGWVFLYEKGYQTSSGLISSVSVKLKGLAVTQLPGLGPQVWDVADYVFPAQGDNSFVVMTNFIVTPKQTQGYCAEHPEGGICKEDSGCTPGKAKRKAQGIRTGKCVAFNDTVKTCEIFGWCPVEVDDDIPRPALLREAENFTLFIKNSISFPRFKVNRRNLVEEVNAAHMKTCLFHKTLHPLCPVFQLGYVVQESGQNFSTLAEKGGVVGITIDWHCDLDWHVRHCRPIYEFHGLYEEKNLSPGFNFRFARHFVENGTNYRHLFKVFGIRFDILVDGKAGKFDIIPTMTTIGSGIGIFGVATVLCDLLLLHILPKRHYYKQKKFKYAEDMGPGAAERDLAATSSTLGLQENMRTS
- experiment_notes: UV photo-cross-linking of radiolabelled analogue, immunoprecipitation and autoradiography with ATP competition; patch clamp agonism
- Format: cell-based
reported_metric: EC50

Exercise: Provide EC50 value for the following compound: [N-]=[N+]=Nc1nc(N)c2ncn([C@@H]3O[C@H](COP(=O)(O)OP(=O)(O)OP(=O)(O)O)[C@@H](O)[C@H]3O)c2n1 [A, 2-azido ATP]
Solution: ~3 µM

---

- target_of_assay: P2X1 receptor (Homo sapiens, UniProt P51575)
- Construct: gene P2RX1; human P2X1 receptor stably expressed in HEK293 cells
- experiment_notes: competition with radiolabelled photo-reactive ATP analogues; whole cell patch clamp agonism
- Assay type: cell-based
reported_metric: EC50

Exercise: Provide EC50 value for the following molecule: Nc1ncnc2c1ncn2[C@@H]1O[C@H](COP(=O)(O)OP(=O)(O)OP(=O)(O)O)[C@@H](O)[C@H]1O [ATP]
Solution: ~1000 nM
